Reported IC50 against F1F0-ATPase (Bos taurus, UniProt P13621), gathered from multiple publications, appears below.

                                   molecule      result
0  O=C(/N=C(/Nc1cccc(Cl)c1)N[C@H]1CC[C@H](Nc2ncccn2)CC1)c1ccc(F)c(F)c1     < 10 µM
1  CCOC(=O)N[C@H]1CC[C@H](N/C(=N\C(=O)c2ccc(F)c(F)c2)NCc2cccc(C(F)(F)F)c2)CC1     < 10 µM
2  Cc1nn(C)cc1C(=O)/N=C(\Nc1cc(F)cc(Cl)c1)Nc1cc(-c2ccc(O)cc2F)n[nH]1  5 to 16 µM
3  COCC(C)NC(=NC(=O)c1ccc(Cl)c(F)c1)Nc1cc(-c2ccc(F)cc2)n[nH]1 (centres unmarked)     < 10 µM
4  O=C(/N=C(/NCc1ccc(F)c(Cl)c1)Nc1cccc(O)n1)c1ccc(Cl)cc1     < 10 µM

So what does the record say about IC50 for O=C(/N=C(\Nc1cc(C(F)(F)F)[nH]n1)NC1CCOCC1)c1ccc(Cl)cc1 ?
< 10 µM

Similarly, CC(C)(C)OC(=O)NC1CCC(NC(=NC(=O)c2ccc(Cl)cc2)NC2CCC(NC(=O)OC(C)(C)C)CC2)CC1 (centres unmarked) ?
> 10 µM

Similarly, CCOC(=O)N[C@H]1CC[C@H](N/C(=N\C(=O)c2ccc(F)c(F)c2)NC(C)(C)C)CC1 ?
> 10 µM

Similarly, Cn1cc(C(=O)/N=C(/Nc2cc(-c3cc(F)cc(F)c3)n[nH]2)NC(C)(C)C)c(C(F)(F)F)n1 ?
< 5 µM

Similarly, CC(C)NC(=NC(=O)c1ccc(C(F)(F)F)cc1)Nc1cc(-c2cc(F)cc(F)c2)n[nH]1 ?
< 10 µM

Similarly, CCOCCN/C(=N/C(=O)c1snnc1C)Nc1cc(-c2ccc(F)cc2)[nH]n1 ?
> 16 µM

Similarly, CCC(C)CN/C(=N/C(=O)c1ccc(Cl)c(F)c1)Nc1cc(-c2cc(F)cc(F)c2)n[nH]1 (centres unmarked) ?
< 10 µM

----------
pIC50: −log10 of the molar value.
Reported pIC50 against F1F0-ATPase (Bos taurus), gathered from multiple publications, appears below.

// below: answered compounds
>>> print(df.to_string())
                                   compound  result
0  O=C(/N=C(/NCc1ccc(Cl)c(F)c1)Nc1cc(C(F)(F)F)[nH]n1)c1ccc(Cl)cc1  > 5.00
1  Cc1oncc1C(=O)/N=C(\Nc1cc(-c2ccc(F)cc2)n[nH]1)NC(C)(C)C  > 5.30

So what does the record say about pIC50 for O=C(/N=C(\Nc1cc(C(F)(F)F)n[nH]1)NC1CCC1)c1ccc(Cl)c(F)c1 ?
> 5.00

Similarly, CCOCCCN/C(=N/C(=O)c1ccc(F)cc1)Nc1cc(-c2ccc(F)cc2)n[nH]1 ?
> 5.00

Similarly, C[C@H](N/C(=N/C(=O)c1ccc(F)c(F)c1)Nc1cc(C(F)(F)F)[nH]n1)c1ccc(Cl)cc1 ?
> 5.00

Similarly, O=C(N=C(Nc1cc(C(F)(F)F)n[nH]1)NC1CCC(O)CC1)c1ccc(F)c(F)c1 (stereo not shown) ?
< 5.00

Similarly, Cn1cc(C(=O)/N=C(/Nc2cccc(F)c2)Nc2cc(-c3ccc(O)cc3F)[nH]n2)c(C(F)(F)F)n1 ?
> 5.30

Similarly, COc1ccc(-c2cc(N/C(=N\C(=O)c3cn(C)nc3C(F)(F)F)NC(C)C)n[nH]2)cc1F ?
4.80 to 5.30

Similarly, O=C(/N=C(/NCc1ccccc1C(F)(F)F)Nc1cc(C(F)(F)F)n[nH]1)c1ccc(F)c(F)c1 ?
> 5.00

Similarly, O=C(/N=C(\Nc1cccc(O)n1)Nc1ccccc1C1CC1)c1ccc(C(F)(F)F)cc1 ?
> 5.00

Similarly, O=C(/N=C(/NCC1CC1)Nc1cccc(O)n1)c1ccc(C(F)(F)F)cc1 ?
> 5.00

Similarly, CCOCCN/C(=N/C(=O)c1ccc(F)c(F)c1)Nc1n[nH]c2cc(F)ccc12 ?
> 5.30

Similarly, CC(C)(C)NC(=NC(=O)c1ccc(Cl)cc1)Nc1cc(-c2cccc(Cl)c2)[nH]n1 ?
> 5.00

----------
Reported IC50 against F1F0-ATPase (Bos taurus, UniProt P13621), gathered from multiple publications, appears below.

In [3]: df
Out[3]:
                            molecule_smiles  property_name      result
0  Cc1cc(C(=O)N[C@H]2CC[C@H](N/C(=N\C(=O)c3ccc(F)c(F)c3)Nc3cccc(Cl)c3)CC2)ccn1           IC50     < 10 µM
1  CCS(=O)(=O)Nc1cccc(N/C(=N\C(=O)c2ccc(Cl)cc2)NCC(C)(C)C)n1           IC50     < 10 µM
2  CC(C)(C)N/C(=N/C(=O)c1ccc(F)c(F)c1)Nc1n[nH]c2c(F)cccc12           IC50  5 to 16 µM
3  CC(C)NC(=NC(=O)c1cccc(F)c1)Nc1cc(-c2cc(F)cc(F)c2)n[nH]1           IC50     < 10 µM
4  CC(C)N/C(=N/C(=O)c1ccc(Cl)cc1)Nc1cccc(O)n1           IC50     < 10 µM

As a next step, examine the molecule that follows.
So what does the record say about IC50 for O=C(/N=C(\Nc1cc(-c2cc(F)cc(F)c2)n[nH]1)NC1COC1)c1ccc(F)c(F)c1 ?
< 10 µM

----------
Reported IC50 against F1F0-ATPase (Bos taurus, UniProt P13621), gathered from multiple publications, appears below.

// below: answered compounds
                                   compound   result
0  O=C(/N=C(\Nc1cc(-c2ccc(Cl)cc2)n[nH]1)NC1CCOCC1)c1ccc(Cl)c(F)c1  > 10 µM
1  O=C(/N=C(/NCc1ccc(Cl)cc1F)Nc1cccc(NS(=O)(=O)CC(F)(F)F)n1)c1ccc(Cl)cc1  < 10 µM
2  CCc1cc(C(=O)/N=C(\Nc2cc(-c3ccc(F)cc3)[nH]n2)NC(C)(C)C)ccn1  < 10 µM
3  COc1ccc(-c2cc(NC(=NC(=O)c3ccc(Cl)c(F)c3)NC3CCOCC3)n[nH]2)cc1  > 10 µM
4  CC(C)(C)OC(=O)N[C@H]1CC[C@H](N/C(=N\C(=O)c2ccc(F)c(F)c2)Nc2cccc(Cl)c2)CC1  < 10 µM
5  COc1ccc(-c2cc(N/C(=N\C(=O)c3cn(C)nc3C(F)(F)F)Nc3ccc(F)cc3Cl)[nH]n2)cc1F   < 5 µM
6  COC[C@H](C)N/C(=N/C(=O)c1cc(C(C)(C)C)nn1C)Nc1cc(-c2ccc(Cl)cc2)n[nH]1   < 5 µM
7  O=C(N=C(Nc1cc(-c2ccc(Cl)cc2)n[nH]1)NC1CCCC1)c1ccc(Cl)c(F)c1  < 10 µM
8  O=C(/N=C(/Nc1cccc(Cl)c1)Nc1cccc(O)n1)c1cccc(C(F)(F)F)c1  < 10 µM
9  CC(C)(N/C(=N/C(=O)c1ccc(C(F)(F)F)cc1)Nc1cccc(O)n1)C(F)(F)F  < 10 µM

So what does the record say about IC50 for COC[C@H](C)N/C(=N/C(=O)c1ccc(F)c(F)c1)Nc1n[nH]c2cc(Cl)ccc12 ?
< 5 µM

Similarly, COc1ccc(-c2cc(N/C(=N\C(=O)c3ccc(F)c(F)c3)NCc3ccc(F)cc3Cl)[nH]n2)cc1 ?
< 10 µM

Similarly, O=C(/N=C(\Nc1cc(C(F)(F)F)[nH]n1)NC(C1CC1)C1CC1)c1ccc(Cl)cc1 ?
< 10 µM

Similarly, Cc1ccc(-c2cc(N/C(=N\C(=O)c3ccc(Cl)c(F)c3)Nc3cc(F)cc(Cl)c3)n[nH]2)cc1 ?
< 10 µM

Similarly, CC(C)(C)N/C(=N/C(=O)c1ccc(F)c(F)c1)Nc1cc(-c2cccc(Cl)c2)[nH]n1 ?
< 10 µM

----------
Reported IC50 against F1F0-ATPase (Bos taurus), gathered from multiple publications, appears below.

In [3]: df
Out[3]:
                                   compound  property_name   result
0  COCC(C)NC(=NC(=O)c1cc(C)nn1C)Nc1cc(-c2ccc(Cl)cc2)n[nH]1 (stereo not drawn)           IC50   < 5 µM
1  O=C(/N=C(/Nc1cc(F)cc(Cl)c1)N[C@H]1CC[C@H](NC(=O)C(F)(F)F)CC1)c1ccc(F)c(F)c1           IC50  < 10 µM
2  Cn1cc(C(=O)/N=C(\Nc2cc(-c3ccc(O)cc3F)[nH]n2)NC(C)(C)C)c(C(F)(F)F)n1           IC50   < 5 µM
3  O=C(/N=C(\Nc1cc(-c2ccc(F)cc2)n[nH]1)NC1CCC1)c1ccc(Cl)c(F)c1           IC50  < 10 µM
4  COCC(C)NC(=NC(=O)c1ccc(F)c(F)c1)Nc1cc(-c2cc(F)cc(F)c2)n[nH]1 (stereo not drawn)           IC50  < 10 µM

So what does the record say about IC50 for COCC(C)NC(=NC(=O)c1cn(C)nc1C(F)(F)F)Nc1n[nH]c2cc(Cl)ccc12 (stereo not drawn) ?
< 5 µM

Similarly, Cc1cc(C(=O)N=C(Nc2cc(-c3ccc(Cl)cc3)n[nH]2)NC(C)C)n(C)n1 ?
< 5 µM

Similarly, CC(C)(C)NC(=NC(=O)c1ccnc(N)c1)Nc1cc(-c2ccc(F)cc2)[nH]n1 ?
< 10 µM

Similarly, CCOCCN/C(=N/C(=O)c1ccc(F)c(F)c1)Nc1n[nH]c2cc(Cl)ccc12 ?
< 5 µM

Similarly, CC(C)(C)c1n[nH]c(NC(=NC(=O)c2ccc(C(F)(F)F)cc2)NCc2ccc(F)cc2Cl)c1F ?
< 10 µM

Similarly, CC(=O)N[C@H]1CC[C@H](N/C(=N\C(=O)c2ccc(F)c(F)c2)Nc2cc(F)cc(Cl)c2)CC1 ?
< 10 µM

Similarly, O=C(/N=C1\Nc2cc(-c3ccc(F)cc3)nn2C[C@@H]2CCCN12)c1ccc(F)cc1 ?
> 10 µM
